# method-description: qHTS assay to identify small molecule antagonists of the estrogen related receptor signaling pathway with the pleiotropic PPARgamma coactivator (PGC) from Tox21 10K library - cell viability counter screen (AID 1224840); further: nearly all actives have a fitted effect of over 40% in size
# test-settings: PGC/ERR reporter cells viability, CellTiter-Fluor, 17.5 h; series mostly up to 92.4 µM
Inconclusive results are not listed. Calls of active or inactive are those of the source. The call rests on the fitted dose curve; in most records, active means well fitted cell-killing curve with a large enough effect in the repeat runs (not every such curve was filed as active); inconclusive means weak or mixed curves, or effect the other way; inactive means no such curve, though single readings can be large or run the other way.
The reply should be one of these categories: yes (1) for active, no (0) for inactive

Answer briefly: the call reported for Nc1c(N=Nc2ccc(-c3ccc(N=Nc4cc(S(=O)(=O)O)c5ccccc5c4N)cc3)cc2)cc(S(=O)(=O)O)c2ccccc12 in this assay. yes (1)

Please do the same for CC(C)c1c(C(=O)Nc2ccccc2)c(-c2ccccc2)c(-c2ccc(F)cc2)n1CC[C@@H](O)C[C@@H](O)CC(=O)O as well. no (0)

Next entry: C1=CC2C3C=CC(C3)C2C1 (stereo not given) no (0)

Same for O=C(O)CC(O)C(=O)O (stereo not given) no (0)

Try this compound too: F[B-](F)(F)F no (0)

What about this compound? CCOc1ccc(NC(C)=O)cc1 no (0)

***
Field: outcome | Entry: CCCc1cc(=O)[nH]c(=S)[nH]1 no (0)

Now the same for CCCCCCCC(=O)OCC(COC(=O)CCCCCCC)OC(=O)CCCCCCC no (0)

Now consider CC(O)(P(=O)(O)O)P(=O)(O)O . no (0)
